The reported numbers originate from patent EP4803541A1.

- system-tested: T1, rhGH protein (UniProt: P01241) (human, UniProt P01241 27-217)
- T1 construct: Coated at 5 ug/ml in the ELISA; also called human growth hormone
- T1 sequence (P01241 27-217 limits assumed, one chain of several): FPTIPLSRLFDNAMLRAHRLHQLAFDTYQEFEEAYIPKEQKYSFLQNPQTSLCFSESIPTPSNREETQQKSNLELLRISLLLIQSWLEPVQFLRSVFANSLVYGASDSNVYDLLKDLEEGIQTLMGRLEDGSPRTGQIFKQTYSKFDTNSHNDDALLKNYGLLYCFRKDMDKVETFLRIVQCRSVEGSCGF
- run-description: ELISA on coated rhGH, anti-6*His HRP; sample after 0.3 M NaOH 24h
parameter-measured: binding result

[[record]]
binder = "M8 (First round) (VHH, tail DDDDK-SGGGGS-HHHHHH) VHH: QVQLVESGGGLAQAGGSLRLSCAVSGMPEFARAMGWFRQAPGKERELLAAIEGIGATTYYADSVKGRFTISRDDAANTVLLQMNSLKPDDTAVYYCAAAFSVTIPTRARHWVYWGPGTLVTVSS"
assay_value = "binds"

[[record]]
binder = "M25 (First round) (VHH, tail DDDDK-SGGGGS-HHHHHH) VHH: QVQLVESGGGLAQAGGSLRLSCAVSGMPEFARAMGWFRQAPGKERELLAAIEGIGATTYYADSVKGRFTISRDDAANTVLLQMNSLKPDDTAVYYCAAAFSVTIPTRARHWDDWGPGTLVTVSS"
assay_value = "binds"

[[record]]
binder = "M31 (First round) (VHH, tail DDDDK-SGGGGS-HHHHHH) VHH: QVQLVESGGGLAQAGGSLRLSCAVSGMPEFARAMGWFRQAPGKERELLAAIEGIGATTYYADSVKGRFTISRDDAANTVLLQMNSLKPDDTAVYYCAAAFSVTIPTRAEHWVDWGPGTLVTVSS"
assay_value = "binds"

[[record]]
binder = "M29 (First round) (VHH, tail DDDDK-SGGGGS-HHHHHH) VHH: QVQLVESGGGLAQAGGSLRLSCAVSGMPEFARAMGWFRQAPGKERELLAAIEGIGAKTYYADSVKGRFTISRDDAANTVLLQMNSLKPDDTAVYYCAAAFSVTIPTRARHWVDWGPGTLVTVSS"
assay_value = "binds"

